# TEST_NAME: Cytotoxicity against human K562/A02 cells assessed as cell survival at 5 uM after 48 hrs by MTT assay relative to control
# Assay type: cell-based
# CONDITION_INFO: K562/A02 cells, read-out: Survival
PARAMETER_MEASURED: viability at 48 h, 5 µM

-- ask Item O=C(Nc1ccc(N2CCCCC2)cc1)c1cccnc1NCc1ccncc1 has what recorded viability at 48 h, 5 µM?
-- reply > 90%

-- ask Entry COc1ccc(CCNC(=O)c2cccnc2NCc2ccncc2)cc1OC please
-- reply > 90%

-- ask Entry COc1ccc(CN(C)C(=O)c2cccnc2NCc2ccncc2)cc1OC please
-- reply > 90%

-- ask Entry O=C(NCCc1cccs1)c1cccnc1NCc1ccncc1 please
-- reply > 90%

-- ask Entry O=C(Nc1ccc(-c2ccccc2)cc1)c1cccnc1NCc1ccncc1 please
-- reply > 90%

-- ask Entry CN1CCN(c2ccc(NC(=O)c3cccnc3NCc3ccncc3)cc2)CC1 please
-- reply > 90%

-- ask Entry COc1cc(NC(=O)c2cccnc2NCc2ccncc2)cc(OC)c1OC please
-- reply > 90%

-- ask Entry COc1cccc(-c2nnc(NC(=O)c3cccnc3NCc3ccncc3)s2)c1 please
-- reply > 90%

-- ask Entry O=C(Nc1ccc(F)c(Cl)c1)c1cccnc1NCc1ccncc1 please
-- reply > 90%

-- ask Entry COc1cccc(NC(=O)c2cccnc2NCc2ccncc2)c1 please
-- reply > 90%

-- ask Entry O=C(Nc1cccc2ccccc12)c1cccnc1NCc1ccncc1 please
-- reply > 90%

---

# Test system: K562/A02
# TEST_NAME: Cytotoxicity against human K562/A02 cells overexpressing P-gp after 48 hrs by MTT assay
# Type: functional, cell-based
# CONDITION_INFO: K562/A02, 48 h
PARAMETER_MEASURED: IC50

-- ask Entry COc1cccc2c1C(=O)c1c(O)c3c(c(O)c1C2=O)C[C@@](O)(C(=O)CO)C[C@@H]3O[C@H]1C[C@H](N)[C@H](O)[C@H](C)O1.Cl [DOXORUBICIN HYDROCHLORIDE] , system K562/A02: what IC50 was measured?
-- reply 54 to 56.8 µM

-- ask Entry COc1cc2c(cc1OC)CN(CCc1ccc(NC(=O)c3cccnc3NCc3ccncc3)cc1)CC2 please
-- reply 74.9 µM

-- ask Entry CC(C)(C)c1ccc(NC(=O)c2cccnc2NCc2ccncc2)cc1 please
-- reply > 100 µM

-- ask Entry COc1cc2c(cc1OC)CN(C(=O)c1cccnc1NCc1ccncc1)CC2 please
-- reply 85.7 µM

-- ask Entry O=C(Nc1ccc(OC(F)(F)F)cc1)c1cccnc1NCc1ccncc1 please
-- reply 28.7 µM

-- ask Entry COc1ccc(CCN(C)CCCC(C#N)(c2ccc(OC)c(OC)c2)C(C)C)cc1OC (stereo not drawn) please
-- reply 31.3 to 33.6 µM

-- ask Entry COc1cc2c(cc1OC)C(Cc1cccc3ccccc13)N(C(=O)c1cccnc1NCc1ccncc1)CC2 (stereo not drawn) please
-- reply > 100 µM

-- ask Entry O=C(NC1CCCc2ccccc21)c1cccnc1NCc1ccncc1 (stereo not drawn) please
-- reply > 100 µM

-- ask Entry O=C(NC(c1ccccc1)c1ccccc1)c1cccnc1NCc1ccncc1 please
-- reply > 100 µM

-- ask Entry O=C(Nc1cccc2ccccc12)c1cccnc1NCc1ccncc1 please
-- reply > 100 µM

-- ask Entry COc1ccc(CCNC(=O)c2cccnc2NCc2ccncc2)cc1OC please
-- reply > 100 µM

-- ask Entry O=C(Nc1ccc(F)c(Cl)c1)c1cccnc1NCc1ccncc1 please
-- reply 27.9 µM

-- ask Entry O=C(Nc1ccc(-c2ccccc2)cc1)c1cccnc1NCc1ccncc1 please
-- reply 27.9 µM

-- ask Entry O=C(Nc1ccc2c(c1)Cc1ccccc1-2)c1cccnc1NCc1ccncc1 please
-- reply > 100 µM

-- ask Entry CN1CCN(CCc2ccc(NC(=O)c3cccnc3NCc3ccncc3)cc2)CC1 please
-- reply > 100 µM

-- ask Entry COc1cc2c(cc1OC)C(c1ccco1)N(C(=O)c1cccnc1NCc1ccncc1)CC2 (stereo not drawn) please
-- reply > 100 µM

-- ask Entry O=C(Nc1nc2ccccc2[nH]1)c1cccnc1NCc1ccncc1 please
-- reply > 100 µM

-- ask Entry O=C(c1cccnc1NCc1ccncc1)N1CCC(N2CCCCC2)CC1 please
-- reply > 100 µM

-- ask Entry COc1cccc(NC(=O)c2cccnc2NCc2ccncc2)c1 please
-- reply > 100 µM

-- ask Entry COc1cc2c(cc1OC)C(C(C)(C)C)N(C(=O)c1cccnc1NCc1ccncc1)CC2 (stereo not drawn) please
-- reply > 100 µM

-- ask Entry O=C(c1cccnc1NCc1ccncc1)N(Cc1ccccc1)Cc1ccccc1 please
-- reply 82.2 µM

-- ask Entry COc1cc2c(cc1OC)C(c1ccccc1)N(C(=O)c1cccnc1NCc1ccncc1)CC2 (stereo not drawn) please
-- reply > 100 µM

-- ask Entry O=C(NCCc1cccs1)c1cccnc1NCc1ccncc1 please
-- reply > 100 µM
